Below is a list of entries, each paired with its recorded % test substance after 24 h [F(t = 24 h) × 100/F(t = 0 h)] value.
assay: Stability in buffer at various pH values; assay type: physicochemical; conditions: pH 7.4, 37° C., 24 h
Counter-ions that a name gives are not always drawn.
Recorded metric: % test substance after 24 h [F(t = 24 h) × 100/F(t = 0 h)] (%)

INSERT INTO assay_data (compound, unit, assay_value) VALUES
  ('CC(C)[C@H](N)C(=O)OCCOc1ccc(-c2c(C#N)c(N)nc(SCc3csc(-c4ccc(Cl)cc4)n3)c2C#N)cc1 [Example 23, dihydrochloride]', '%', 96),
  ('N#Cc1c(NC(=O)CCCN)nc(SCc2csc(-c3ccc(Cl)cc3)n2)c(C#N)c1-c1ccc(OCCOC(=O)CCCN)cc1 [Example 25, dihydrochloride]', '%', 4),
  ('N#Cc1c(N)nc(SCc2csc(-c3ccc(Cl)cc3)n2)c(C#N)c1-c1ccc(OCCOC(=O)[C@H](N)CCCN)cc1 [Example 39, dihydrochloride]', '%', 0),
  ('N#Cc1c(N)nc(SCc2csc(-c3ccc(Cl)cc3)n2)c(C#N)c1-c1ccc(OCCOC(=O)CCC(=O)O)cc1', '%', 100);

---

test: Stability in buffer at various pH values; assay type: physicochemical; conditions: pH 7.4, 37° C., 24 h
Structures can show the parent of a compound that is named as a salt.
Recorded metric: % test substance after 24 h [F(t = 24 h) × 100/F(t = 0 h)] (%)

INSERT INTO measurements (compound, assay_value) VALUES
  ('N#Cc1c(NC(=O)CCN)nc(SCc2csc(-c3ccc(Cl)cc3)n2)c(C#N)c1-c1ccc(OCCOC(=O)CCN)cc1 [Example 26, dihydrochloride]', 2),
  ('N#Cc1c(N)nc(SCc2csc(-c3ccc(Cl)cc3)n2)c(C#N)c1-c1ccc(OCCOC(=O)[C@@H](N)CN)cc1 [Example 40, dihydrochloride]', 53),
  ('CN(C)CC(=O)Nc1nc(SCc2csc(-c3ccc(Cl)cc3)n2)c(C#N)c(-c2ccc(OCCOC(=O)CN(C)C)cc2)c1C#N', 97),
  ('N#Cc1c(N)nc(SCc2csc(-c3ccc(Cl)cc3)n2)c(C#N)c1-c1ccc(OCCOC(=O)[C@@H](N)CCCN)cc1 [Example 22, dihydrochloride]', 0),
  ('N#Cc1c(N)nc(SCc2csc(-c3ccc(Cl)cc3)n2)c(C#N)c1-c1ccc(OCCOC(=O)[C@@H](N)CCCNC(=N)N)cc1 [Example 38, trihydrochloride]', 94),
  ('CC(C)[C@H](N)C(=O)OCCOc1ccc(-c2c(C#N)c(NC(=O)CCCN(C)C)nc(SCc3csc(-c4ccc(Cl)cc4)n3)c2C#N)cc1', 84);

---

experiment: Stability in buffer at various pH values; assay type: physicochemical; settings: pH 4, 37° C., 24 h
Where a name gives a salt, the structure may show the parent alone.
Recorded metric: % test substance after 24 h [F(t = 24 h) × 100/F(t = 0 h)]

INSERT INTO measurements (compound, assay_value) VALUES
  ('CC(C)[C@H](N)C(=O)OCCOc1ccc(-c2c(C#N)c(NC(=O)CCCN(C)C)nc(SCc3csc(-c4ccc(Cl)cc4)n3)c2C#N)cc1', '100%'),
  ('N#Cc1c(N)nc(SCc2csc(-c3ccc(Cl)cc3)n2)c(C#N)c1-c1ccc(OCCOC(=O)CCC(=O)O)cc1', '100%'),
  ('N#Cc1c(N)nc(SCc2csc(-c3ccc(Cl)cc3)n2)c(C#N)c1-c1ccc(OCCOC(=O)[C@@H](N)CCCNC(=N)N)cc1 [Example 38, trihydrochloride]', '100%'),
  ('N#Cc1c(N)nc(SCc2csc(-c3ccc(Cl)cc3)n2)c(C#N)c1-c1ccc(OCCOC(=O)[C@H](N)CCCN)cc1 [Example 39, dihydrochloride]', '100%'),
  ('N#Cc1c(N)nc(SCc2csc(-c3ccc(Cl)cc3)n2)c(C#N)c1-c1ccc(OCCOP(=O)(O)O)cc1', '100%'),
  ('CN(C)CC(=O)OCCOc1ccc(-c2c(C#N)c(N)nc(SCc3csc(-c4ccc(Cl)cc4)n3)c2C#N)cc1', '91%');
